Test system: IGROV-1
testProtocol: NCI tumour cell line growth inhibition, 48 h
The source made the active and inactive calls. Rule as the data show it: active = GI50 up to about 1.1 µM and inactive = higher.
experimentalReadout: GI50

CCOC(=O)/C(=C/c1ccccc1Br)P(=O)(OCC)OCC = 3.28 µM (inactive)
O=C1c2ccccc2N1C(=O)c1ccccc1[N+](=O)[O-] = > 100 µM (inactive)
COc1ccc(C2ON(c3ccccn3)CC=C2C)cc1 (stereo not given) = > 100 µM (inactive)
COc1ccc(C(C)NNC(=O)c2ccncc2)cc1OC (stereo not given) = > 100 µM (inactive)

Data request: Give the observed GI50 of COc1ccc(-c2nc(-c3cnccn3)n(C3OC(CO)C(O)C(O)C3O)n2)cc1 (stereo not given) for IGROV-1.
Data returned: > 100 µM (inactive)

* * *

Tested on: T47D
testProtocol: NCI tumour cell line growth inhibition, 48 h
The source made the active and inactive calls. No stated cut-off is given here; in the data, active = GI50 up to about 1.1 µM and inactive = higher.
Respond using exactly one of the listed classes: active, inactive

Data request: Hi, do you know how O=C(O)C(Oc1nc(S)nc(S)n1)(c1ccc(Cl)cc1)c1ccc(Cl)cc1 came out in this test?
Data returned: inactive

Data request: Hi, do you know how O=C(Nc1ccn(C2CCC(COC(c3ccccc3)(c3ccccc3)c3ccccc3)O2)c(=O)n1)c1ccccc1 (stereo not given) came out in this test?
Data returned: inactive

Data request: Hi, do you know how CN(C)C(=O)C(F)(F)C(c1ccc(F)cc1)C1C(=O)N(C)C(=O)N(C)C1=O (stereo not given) came out in this test?
Data returned: inactive

Data request: Hi, do you know how CCCN1CC=C(c2cc(C(=O)OCC)[nH]c2-c2cc(C)no2)C1=O came out in this test?
Data returned: inactive

Data request: Hi, do you know how O=C(NNc1cn[nH]c(=O)c1Cl)/C(=C/c1ccc2c(c1)OCO2)NC(=O)c1ccccc1 came out in this test?
Data returned: inactive

Data request: Hi, do you know how Cc1n2nc(N)sc2n[n+]1CC(=O)c1ccccc1 came out in this test?
Data returned: inactive

Data request: Hi, do you know how CC1=C(C2=C(C)C(=O)C(=O)c3cc(C)ccc32)c2ccc(C)cc2C(=O)C1=O came out in this test?
Data returned: active

Data request: Hi, do you know how CCCC1c2c(ccc3ccccc23)Oc2ccc3ccccc3c21 came out in this test?
Data returned: inactive

Data request: Hi, do you know how N=C1C=C(N)C(=O)c2[nH]c(=O)ccc21 came out in this test?
Data returned: inactive

Data request: Hi, do you know how CC(C)C[C@H](NC(=O)[C@@H](Cc1cccc2ccccc12)NC(=O)N1CCOCC1)B(O)O came out in this test?
Data returned: inactive

* * *

As shown below, each of these compounds has a reported GI50 value.
System: EKVX
testProtocol: NCI tumour cell line growth inhibition, 48 h
Calls of active or inactive are those of the source. Rule as the data show it: active = GI50 up to about 1.1 µM and inactive = higher.

Some solved entries appear below for comparison.
CN(C)C1(N(C)C)Oc2c(c(=O)n(C)c(=O)n2C)C(c2ccc(F)cc2)C1(F)F (stereo not given) = > 100 µM (inactive)
CC(C)CC(NC(=O)C(CSc1ccc([N+](=O)[O-])cc1)Cc1ccccc1)C(=O)Nc1ccccc1 (stereo not given) = > 100 µM (inactive)
COc1cc([N+](=O)[O-])ccc1NC(=O)c1cccc([N+](=O)[O-])c1O = 29.1 µM (inactive)
NCC1CCCCC1.O=C(O)NCC1CCCCC1 = 30.1 µM (inactive)
Cc1ccc(NC(=O)c2cccc([N+](=O)[O-])c2O)c(C)c1 = 17.1 µM (inactive)

Now for the compound whose GI50 we want.
Data request: Kindly indicate its recorded GI50. Item: CCC(=N\NC(N)=S)/C(C)=N/O
Data returned: > 100 µM (inactive)
